Target: T1, recombinant, phycoerythrin (PE) labeled, BCMA extracellular domain-FC fusion protein (Homo sapiens (Human), UniProt Q02223 1-54, phycoerythrin (PE) label)
T1 construct: The whole entry is named here; only the extracellular domain stood in the assay; also called BCMA-PE; not shown: Fc part of the staining reagent
T1 sequence: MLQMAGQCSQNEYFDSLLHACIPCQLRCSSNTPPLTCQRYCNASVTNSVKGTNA
Assay: flow cytometry of transduced PBMCs stained with BCMA-PE (PE-labeled BCMA extracellular domain-Fc)
Parameter measured: binding result

anti-BCMA CAR of recombinant lentivirus LV 11 (SEQ ID NO: 275) (receptor) EVQLLESGGGLVQPGGSLRLSCAASGFTFDEYTMHWFRQAPGKEREFVSAISGGGSETYYADSVKGRFTISRDNSKNTLYLQMNSLRAEDTAVYYCAAGGEEAGVGYWGQGTQVTVSSTTTPAPRPPTPAPTIASQPLSLRPEACRPAAGGAVHTRGLDFACDIYIWAPLAGTCGVLLLSLVITLYCKRGRKKLLYIFKQPFMRPVQTTQEEDGCSCRFPEEEEGGCELRVKFSRSADAPAYQQGQNQLYNELNLGRREEYDVLDKRRGRDPEMGGKPRRKNPQEGLYNELQKDKMAEAYSEIGMKGERRRGKGHDGLYQGLSTATKDTYDALHMQALPPR; binds
anti-BCMA CAR of recombinant lentivirus LV 15 (SEQ ID NO: 279) (receptor) EVQLLESGGGLVQPGGSLRLSCAASGFTFDSYTMSWYRQAPGKERELVSAISGHGDSTYYADSVKGRFTISRDNSKNTLYLQMNSLRAEDTAVYYCTRISITTEWLAGDYWGQGTQVTVSSTTTPAPRPPTPAPTIASQPLSLRPEACRPAAGGAVHTRGLDFACDIYIWAPLAGTCGVLLLSLVITLYCKRGRKKLLYIFKQPFMRPVQTTQEEDGCSCRFPEEEEGGCELRVKFSRSADAPAYQQGQNQLYNELNLGRREEYDVLDKRRGRDPEMGGKPRRKNPQEGLYNELQKDKMAEAYSEIGMKGERRRGKGHDGLYQGLSTATKDTYDALHMQALPPR; binds

Each recorded value in this set is attributed to patent US20250099587A1.
